pIC50: −log10 of the molar value.
// molecules with pIC50 on Cathepsin S (Homo sapiens, UniProt P25774), multi-source literature
OUTCOME_MEASURE: pIC50

### Prompt Can you share its pIC50? I mean this molecule: Cc1cc(-c2ccc(S(=O)(=O)[C@H]3C[C@@H](OC4CCC4)[C@H](C(=O)NC4(C#N)CC4)C3)c(C(F)(F)F)c2)ccn1 (racemic)
### Response 9.68

A = Cn1cc(-c2ccc(S(=O)(=O)[C@H]3C[C@@H](OC4CCCC4)[C@H](C(=O)NC4(C#N)CC4)C3)c(C(F)(F)F)c2)cn1 (racemic)
B = N#CC1(NC(=O)[C@@H]2C[C@@H](S(=O)(=O)c3ccc(-c4ccnc(Cl)c4)cc3Cl)CN2C(=O)C2(c3ncc(Cl)cc3F)CC2)CC1
### Prompt Given A and B , report the one with the higher recorded pIC50. # answer = label of selected item
### Response A

I = COc1ccc(-c2ccc([C@H](N[C@@H](CC(C)C)C(=O)N3C[C@H](F)[C@H]4OCC(=O)[C@H]43)C(F)(F)F)cc2)cc1
II = CCN1CCN(Cc2ccc(C(F)(F)[C@@H]3C[C@@H](C(=O)NC4(C#N)CC4)N(C(=O)C4(C(F)(F)F)CC4)C3)c(C(F)(F)F)c2)CC1
III = CN1CCC(C#N)(NC(=O)[C@@H]2C[C@@H](S(=O)(=O)c3ccc(Cl)cc3Cl)C[C@H]2OCc2ccc(Cl)cc2)CC1 (racemic)
### Prompt rank_up(items): orders items by reported pIC50 in ascending numerical order. State the ranking by listing the labels in the requested order.
### Response I, III, II

a = CCCC(C)NC(=O)C(=O)[C@H](CC)NC(=O)[C@@H]1C[C@@H](S(=O)(=O)c2ccccc2Cl)CN1C(=O)C1(c2ccc(Cl)cc2)CC1 (stereo partly drawn)
b = CC[C@H](NC(=O)[C@@H]1C[C@@H](S(=O)(=O)c2ccc(N3CCOCC3)cc2Cl)CN1C(=O)C1(c2ccc(Cl)cc2)CC1)C(=O)C(=O)NC1CC1
c = CCC[C@H](NC(=O)[C@@H]1C[C@@H](S(=O)(=O)c2ccccc2Cl)CN1C(=O)C1(c2ccc(Cl)cc2)CC1)C(=O)C(=O)N(C)C1CC1
d = N#CC1(NC(=O)[C@H]2CC[C@H](S(=O)(=O)c3ccc(OCC(F)(F)F)cc3Cl)C2)CC1 (single isomer, unassigned)
### Prompt Order the records so the highest pIC50 appears first and the lowest last. State the ranking by listing the labels in the requested order.
### Response a, b, c, d

* * *

// compounds with IC50 on Cathepsin S (Homo sapiens), multi-source literature
OUTCOME_MEASURE: IC50 (nM)

### Prompt Can you share its IC50? I mean this compound: CS(=O)(=O)c1ccc(-c2ccc3cc(C(=O)NC4(C(=O)NC5(C#N)CC5)CCC(F)(F)CC4)oc3c2)cc1
### Response 4000

### Prompt Can you share its IC50? I mean this compound: N#CC1(NC(=O)[C@@H]2C[C@@H](S(=O)(=O)c3ccc(-n4ccnn4)cc3)CN2C(=O)C2(C(F)(F)F)CC2)CC1
### Response 1.06

### Prompt Can you share its IC50? I mean this compound: CC[C@H](NC(=O)[C@@H]1C[C@@H](S(=O)(=O)c2ccccc2Cl)CN1C(=O)C1(c2ccc(I)cc2)CC1)C(=O)C(=O)NC1CC1
### Response 0.652

### Prompt Can you share its IC50? I mean this compound: N#CCNC(=O)[C@@H]1C[C@@H](S(=O)(=O)c2ccccc2Cl)C[C@H]1C(=O)N1CCOCC1
### Response 0.5

### Prompt Can you share its IC50? I mean this compound: COC(=O)Cn1cc(-c2ccc(S(=O)(=O)[C@H]3C[C@@H](OC)[C@H](C(=O)NC4(C#N)CC4)C3)c(C(F)(F)F)c2)cn1 (racemic)
### Response 0.3

### Prompt Can you share its IC50? I mean this compound: Cc1cc(C(F)(F)F)nn1-c1ccc(S(=O)(=O)[C@@H]2C[C@@H](C(=O)NC3(C#N)CC3)N(C(=O)C3(C(F)(F)F)CC3)C2)c(Cl)c1
### Response 0.98

### Prompt Can you share its IC50? I mean this compound: N#CC1(NC(=O)[C@@H]2C[C@H](S(=O)(=O)c3ccc(F)cc3Cl)C[C@H]2COc2ccc(F)cc2)CC1 (single isomer, unassigned)
### Response 2.25

### Prompt Can you share its IC50? I mean this compound: Cn1nccc1-c1ccc(S(=O)(=O)[C@@H]2C[C@@H](C(=O)NC3(C#N)CC3)[C@H](C(=O)N3CC(F)(F)C3)C2)c(C(F)(F)F)c1
### Response 0.2

P = N#CCNC(=O)[C@@H]1C[C@@H](S(=O)(=O)c2ccccc2Cl)C[C@H]1O (racemic)
Q = N#CC1(NC(=O)C2(NC(=O)c3cc4ccc(-c5ccc(C6(O)COC6)nc5)cc4o3)CCCCC2)CC1
### Prompt Looking at recorded values for IC50, does P or Q come in lower? # answer = label of selected item
### Response P
(P: 82.3 nM, Q: 1050 nM)
